experimental_protocol: yeast display, Sf9 membrane polyspecificity reagent, FACS + sequencing; frameworks hold sequencing errors
assay_metric: polyreactivity (PSR sort gate)

Below: 5 sequences and their reported polyreactivity (PSR sort gate).
1) QVQLVESGGGLVQAGGSLRLSCAASGGIFWYNAMGWYRQAPGKERELVADISSSGITYYADSVKGRFTISRDNAKNTVYLQMKSLKPEDTAVYYCAADSTTRPGLRVYDDYDYWGQGTQVTVSS    low polyreactivity
2) QVQLVESGGGLGQAGGSLRLSCAASGSIIKPYAMGWYRQAPGKERELVAAIRSSGGRTNYADSVKGRFTISRDNAKNSVYFQMNSLKPEDTGVYYCAAGYVSYWYYRYDYWGQGTQVTVSS    high polyreactivity
3) QVQLVELGGGLVQAGGSLRLSCAASGGTFPRYAMGWYRQAPGKERELVAAITSRGDRTYYADSVKGRFTISRDNAKNTVYLQMNSLKPEDTAVYYCAARLYYSSYGRVKMDYWGQGTQVTVSS    high polyreactivity
4) QVQLVESGGGLVQAGGSLRLSCAASGRTFYVYTMGWYRQAPGKERELVAAITSGGSTNYADSVKGRFTISRDNAKNTVYLQMNSLKPEDTAVYYCAARVSTVFKRYYYCGQGTQVTVSS    high polyreactivity
5) QVQLLESGGGLVQAGGSLRLTCMASGSILGDRMSWYRQARGKEHELVATIYDGGITYYADSMKGRFTISRDNAKNTVYLQLNSLRPEDTAVYYCGASFEGYRYHVYCGQGTQVTVSS    low polyreactivity

Challenge: Report polyreactivity (PSR sort gate), nothing else, for this sequence: QYQLVESGGGLVQAGGRLRLSCAASGSIFSNYAMGWYRQAPGKERQFVAAISGGGGSTYYADSVKGRFTISRDNANNTVYLQMNSLKPEDTAVYYCARVRYYGALKLYAYDHWGQGTQVTVSS
Response given: high polyreactivity

Challenge: Report polyreactivity (PSR sort gate), nothing else, for this sequence: QVQLVESGGGLVQAGGSLRLSCAASGRIFDVNAMGWYRQAPGKERELVAAIRSGGRTNYADSVKGRFTISRDNAKNTVYLQMNSLKPEDTAVYYCAAVVWSSLDDYWGLGTQVTVSS
Response given: high polyreactivity

Challenge: Report polyreactivity (PSR sort gate), nothing else, for this sequence: QVQLVETGGGLVQAGGSLRLSCAASGFILSLYAMGWYRQAPGKERELVAAISRSGASTSYADSVKGRFTISRDNAKNSVYLQMNSLKPEDTAVYYCNVRRWPYSPGYDYWGQGTQVTVSS
Response given: high polyreactivity

Challenge: Report polyreactivity (PSR sort gate), nothing else, for this sequence: QVQLVESGGGLVQAGGSLRLSCAASGTIPGYAMGWYRQAPGKETELVAAITWSDDSTFYADSVKGRFTISRDNAKNTVYLQMNSLKPEDTAVYYCAAEYVVSTQEFDYWGQGTQVTVSS
Response given: low polyreactivity

Challenge: Report polyreactivity (PSR sort gate), nothing else, for this sequence: QVQLVESGGGLVQAGGSLRLSCAASGRITQYTMGWYRQAPGKERELVASIRKSGSTHYADSVKGRFTISRDNAKNTVYLQMNSLKPEDTAVYYCAARTYNPLTGYGYWGQGTQVTVSS
Response given: high polyreactivity

Challenge: Report polyreactivity (PSR sort gate), nothing else, for this sequence: QVQLVESGGGLVQAEGSLRLSCAASGRTFRPYALGWYRQAPGKERELVAVITSGGRTDYADSVKGRFTISRDNAKNTVYLQMNSLKPEDTAVYYCNAGAVYWGYSRGWYERDYWGQGTQVTVSS
Response given: high polyreactivity

Challenge: Report polyreactivity (PSR sort gate), nothing else, for this sequence: QVQLVESGGGLGQAGGSLRLSCASSGFTFVPYAMVWYSPAPGKERELVAAIDFDDATTYYADSVKGRFTISRDNAKNTVYLQMNSMKPEDTALYYCAADGFYAPDDAPFYYWGQGTQVTVSS
Response given: high polyreactivity

Challenge: Report polyreactivity (PSR sort gate), nothing else, for this sequence: QVQLVESGGGLVQAGGSLRLSCAASGRIFPYYAMGWYRQAPGKERELVATISTAGSTNYADSVKGRFTISRDNAKNTVYLQMNSMKPEDTAVYYCATRNTWYHRGYDFWGLGTQVTVSS
Response given: low polyreactivity

Challenge: Report polyreactivity (PSR sort gate), nothing else, for this sequence: QVQLVESGGGLVQAGGSLRLSCAASGIIFGKYDMGWYRQAPGKEREMVAAITSGTSTNYADSVKGRFTISRDNAKNTVYLQMNSLKPEDTAVYSCAADVYLYYPYFGHRRYNYWGQGTQVTVSS
Response given: high polyreactivity

Challenge: Report polyreactivity (PSR sort gate), nothing else, for this sequence: QVQLVESGGGLVQAGGSLRLSSAASGFIFDYSAMGWYRQAPGKERELVAAITRDGGGTYYADSVKGRFTISRDNANNTVYLQMNRLKPEDTAVYYCAARRAVRLYYWGQGTQVTVSA
Response given: high polyreactivity

Challenge: Report polyreactivity (PSR sort gate), nothing else, for this sequence: QVQLVESGGGLVQAGGSLRLSCAASGFTFEKNAMGWYRQAPGKERELVAAISRGGSTYADSVKGRFTISRDNAKNTVYLQMNSLKPEDTAVYYCAADTVYIFSSAINGEFGYWGQGTQVTVSS
Response given: low polyreactivity

Challenge: Report polyreactivity (PSR sort gate), nothing else, for this sequence: QVQLVESGGGLVQAGGSLPLSCAASGRIYGGNVMGWYRQAPGKERELVAAISKRGDSTYYADSVKGRFTISRDNAKNTVYLQMNSLKPEDTAVYYCAAVRRGDRGTDMDYWGQGTQVTVSS
Response given: high polyreactivity

Challenge: Report polyreactivity (PSR sort gate), nothing else, for this sequence: QVQLVESGGGLVQAGGSLRLSCAASGGIFWYYAMGWYRQAPGKERELVAAINSGGSTYYADSVKGRFTISRDNAKNTVYLQMNSLNPEDTAVYYCNTRYPFSRYDYWGQGTQVTVSS
Response given: low polyreactivity

Challenge: Report polyreactivity (PSR sort gate), nothing else, for this sequence: QVQLVESGGGLVQAGGSLRLSCAASGFIFRINAMGWYRQAPGKERELVAAITSSGGSTYYADSVKGRFTISRDNAKNTVYLQMNSLKPEDTAVYYCAASRPRPPSSRRMDYWGQGTQVTVSS
Response given: high polyreactivity

Challenge: Report polyreactivity (PSR sort gate), nothing else, for this sequence: QVQLVESGGGLVQAGGSFRLSCAASGFTLYGNAMGWSRQAPGNDRELVATIRSTGSTTYADSVKGRFTISRDNAKNTVYLQMNSLKPEDTAVHYCAKVSTYGGRHRWPGSIYDYWGQGTQVTVSS
Response given: low polyreactivity

Challenge: Report polyreactivity (PSR sort gate), nothing else, for this sequence: QVQLVESGGGLVQAGGSLRLSCAASGLIFYRYAMGWYRQAPGKERELVAAISSSGGSTYYADSVKGRFTISRDNAKNTVYLQMNSLKPDDTAVYYCAARPSTHGYKYGYWGQGTQVTVSS
Response given: high polyreactivity
